Known pEC50 of a selection of molecules
# experimentalTarget: human β3-adrenergic receptor (Homo sapiens)
# Construct: A full-length human β3 gene is obtained from a human genomic library (made by Clontech) using this as the probe
# experimentalDetails: Test Case 1-B: human β3-adrenergic receptor agonist activity (cAMP-Screen, 96-well)
# measurementParameters: Test Case 1-B; CHO cells, cAMP
Scale for pEC50: -log10 of concentration given in mol/L; no unit attached.

These solved cases illustrate the format of a correct answer.
> print(dat)
                                    molecule  obsvalue
 1  Cc1n[nH]c2cc(OCCNC[C@H](O)c3cccc(NS(=O)(=O)c4c(F)cccc4F)c3)ccc12 [ex71]      6.82
 2  Cc1n[nH]c2cc(OCCNC[C@H](O)c3cccc(NS(=O)(=O)CC(F)(F)F)c3)ccc12      7.57
 3  Cc1n[nH]c2cc(OCCNC[C@H](O)c3cccc(NS(=O)(=O)c4c(F)cccc4F)c3)ccc12 [ex69]      6.23
 4  COc1n[nH]c2cc(OCCNC[C@H](O)c3cccc(NS(=O)(=O)c4cccnc4)c3)ccc12 [ex44]      7.89
 5  COc1cccc(S(=O)(=O)Nc2cccc([C@@H](O)CNCCOc3ccc4c(OC)n[nH]c4c3)c2)c1      7.82
 6  CCc1n[nH]c2cc(OCCNC[C@H](O)c3cccc(NS(=O)(=O)c4cn[nH]c4)c3)ccc12      7.92
 7  O=S(=O)(Nc1cccc([C@@H](O)CNCCOc2ccc3c(Cl)n[nH]c3c2)c1)C1CC1      7.66
 8  CCc1n[nH]c2cc(OCCNC[C@H](O)c3cccc(NS(=O)(=O)C4CCC4)c3)ccc12      8.27
 9  CCc1n[nH]c2cc(OCCNC[C@H](O)c3cccc(NS(=O)(=O)c4cccc(OC)c4)c3)ccc12      6.88
10  O=S(=O)(Nc1cccc([C@@H](O)CNCCOc2ccc3c(C(F)(F)F)n[nH]c3c2)c1)C1CCC1      7.77

Q: Endpoint output: pEC50 of O=S(=O)(Nc1cccc([C@@H](O)CNCCOc2ccc3c(C(F)(F)F)n[nH]c3c2)c1)C1CC1 . Value?
Result: 7.80

Q: Give its pEC50 value. Item: COc1n[nH]c2cc(OCCNC[C@H](O)c3cccc(NS(=O)(=O)c4ccsc4)c3)ccc12 [ex11]
Result: 8.49

Q: Fill in: pEC50 of Cc1n[nH]c2cc(OCCNC[C@H](O)c3cccc(NS(=O)(=O)C4CCC4)c3)ccc12 is ___
Result: 7.77

Q: Fill in: pEC50 of CCc1n[nH]c2cc(OCCNC[C@H](O)c3cccc(NS(=O)(=O)c4cccc(Cl)c4)c3)ccc12 is ___
Result: 7.64

Q: Could you share which pEC50 value was measured for COc1n[nH]c2cc(OCCNC[C@H](O)c3cccc(NS(=O)(=O)c4cccs4)c3)ccc12 [ex45] ?
Result: 8.62

Q: I have this molecule here, CCc1n[nH]c2cc(OCCNC[C@H](O)c3cccc(NS(=O)(=O)C4CC4)c3)ccc12 , and I need its recorded pEC50.
Result: 7.89

* * *

# experimentalTarget: human α1A-adrenergic receptor (Homo sapiens)
# Sequence (P35348 whole entry): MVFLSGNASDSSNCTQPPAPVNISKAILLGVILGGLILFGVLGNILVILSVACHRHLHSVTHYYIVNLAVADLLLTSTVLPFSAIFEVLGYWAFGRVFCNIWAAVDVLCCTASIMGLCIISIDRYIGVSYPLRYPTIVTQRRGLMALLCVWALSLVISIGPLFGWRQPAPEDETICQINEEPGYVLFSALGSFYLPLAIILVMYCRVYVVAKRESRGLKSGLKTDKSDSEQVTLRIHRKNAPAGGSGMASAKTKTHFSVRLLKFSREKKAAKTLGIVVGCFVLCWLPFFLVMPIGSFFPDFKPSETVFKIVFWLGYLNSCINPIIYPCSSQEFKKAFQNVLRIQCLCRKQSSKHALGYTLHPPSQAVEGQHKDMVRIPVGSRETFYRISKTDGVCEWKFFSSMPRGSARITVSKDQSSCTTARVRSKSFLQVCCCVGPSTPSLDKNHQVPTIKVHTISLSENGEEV
# experimentalDetails: Test Case 4-A: human α1A-adrenergic receptor agonist activity (HEK293, Ca flux, Fura-2)
# Assay type: cell-based
# Parameters: expressed in transfected cells; host or cells: HEK293 cells, pcDNA3.1
# measurementParameters: Test Case 4-A; maximum response of norepinephrine = 100%; Table 4
measuredAttribute: α1A receptor I.A. (%)
Give your result in % as a bare value.

These solved cases illustrate the format of a correct answer.
> print(dat)
                                   compound                        experimentaltarget  measuredattribute  unitsofmeasure  obsvalue
1  COc1n[nH]c2cc(OCCNC[C@H](O)c3cccc(NS(=O)(=O)c4cccs4)c3)ccc12 [ex45]  human α1A-adrenergic receptor (Homo sapiens)  α1A receptor I.A.               %         0
2  COc1cccc(S(=O)(=O)Nc2cccc([C@@H](O)CNCCOc3ccc4c(OC)n[nH]c4c3)c2)c1 [ex43]  human α1A-adrenergic receptor (Homo sapiens)  α1A receptor I.A.               %         0
3  NC[C@H](O)c1ccc(O)c(O)c1 [Norepinephrine, reference compound]  human α1A-adrenergic receptor (Homo sapiens)  α1A receptor I.A.               %       100
4  COc1n[nH]c2cc(OCCNC[C@H](O)c3cccc(NS(=O)(=O)c4cccc(N)c4)c3)ccc12 [ex41]  human α1A-adrenergic receptor (Homo sapiens)  α1A receptor I.A.               %         0

Q: Fill in the blank: the reported α1A receptor I.A. of COc1n[nH]c2cc(OCCNC[C@H](O)c3cccc(NS(=O)(=O)c4cccnc4)c3)ccc12 [ex44] is ____.
Result: 0

Q: Please give the measured α1A receptor I.A. for this compound: COc1n[nH]c2cc(OCCNC[C@H](O)c3cccc(NS(=O)(=O)c4ccsc4)c3)ccc12 [ex46]
Result: 0

Q: Entry O=S(=O)(Nc1cccc([C@@H](O)CNCCOc2ccc3c(OC(F)F)n[nH]c3c2)c1)c1ccccn1 [ex117] has what α1A receptor I.A.?
Result: 0

Q: Find the recorded α1A receptor I.A. belonging to COc1n[nH]c2cc(OCCNC[C@H](O)c3cccc(NS(=O)(=O)c4cccc(Cl)c4)c3)ccc12 [ex42] and report it.
Result: 0

Q: Consider the compound shown here: Cc1n[nH]c2cc(OCCNC[C@H](O)c3cccc(NS(=O)(=O)c4c(F)cccc4F)c3)ccc12 [ex71] What is its recorded α1A receptor I.A.?
Result: 2

* * *

# experimentalTarget: human β2-adrenergic receptor (Homo sapiens, UniProt P07550)
# Construct: expressed in transfected cells; host or cells: CHO (Chinese hamster ovary) cells, pcDNA3
# Sequence (P07550 whole entry): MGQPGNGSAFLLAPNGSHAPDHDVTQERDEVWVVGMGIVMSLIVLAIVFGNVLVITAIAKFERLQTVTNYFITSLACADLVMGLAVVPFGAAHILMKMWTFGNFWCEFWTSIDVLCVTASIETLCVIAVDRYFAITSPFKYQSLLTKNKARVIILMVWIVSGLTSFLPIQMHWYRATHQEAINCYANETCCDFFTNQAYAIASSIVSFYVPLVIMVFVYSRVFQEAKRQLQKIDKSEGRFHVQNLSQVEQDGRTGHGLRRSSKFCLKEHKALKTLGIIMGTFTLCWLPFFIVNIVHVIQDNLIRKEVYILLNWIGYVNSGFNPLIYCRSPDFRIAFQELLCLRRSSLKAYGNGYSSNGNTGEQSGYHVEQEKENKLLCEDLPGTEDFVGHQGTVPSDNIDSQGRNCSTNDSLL
# experimentalDetails: Test Case 3-B: human β2-adrenergic receptor agonist activity
# Assay type: cell-based
# measurementParameters: read-out: β2 receptor I.A.
Measured Emax by item
Please state the figure in %; there is no need to write the unit.

> print(dat)
                          compoundstructure  obsvalue
1  COc1n[nH]c2cc(OCCNC[C@H](O)c3cccc(NS(=O)(=O)c4ccccc4F)c3)ccc12         0
2  O=S(=O)(Nc1cccc([C@@H](O)CNCCOc2ccc3c(OC(F)F)n[nH]c3c2)c1)C1CC1         1
3  Cc1n[nH]c2cc(OCCNC[C@H](O)c3cccc(NS(=O)(=O)c4ccccc4N)c3)ccc12         2
4  COc1n[nH]c2cc(OCCNC[C@H](O)c3cccc(NS(=O)(=O)c4cccc(N)c4)c3)ccc12         1
5  Cc1n[nH]c2cc(OCCNC[C@H](O)c3cccc(NS(=O)(=O)c4ccccc4F)c3)ccc12         2

Q: Consider the molecule Cc1n[nH]c2cc(OCCNC[C@H](O)c3cccc(NS(=O)(=O)c4ccccc4O)c3)ccc12 and give its measured Emax.
Result: 8

* * *

# Test system: Male C57BL/6 Cr mice
# experimentalDetails: Test Case 10: mouse piloerection test
# Format: in vivo
# measurementParameters: 10 mg/kg i.v., n=4, observation time 15 min, Score 0.5
measuredAttribute: number of experimental animals matching Score 0.5
No unit in the answer, please; the number alone is enough.

> print(dat)
                          compoundstructure  obsvalue
1  Cc1n[nH]c2cc(OCCNC[C@H](O)c3cccc(NS(=O)(=O)C4CCC4)c3)ccc12         1
2  CCc1n[nH]c2cc(OCCNC[C@H](O)c3cccc(NS(=O)(=O)C4CC4)c3)ccc12         3
3  COc1n[nH]c2cc(OCCNC[C@H](O)c3cccc(NS(=O)(=O)c4ccccc4F)c3)ccc12         2

Would you kindly look at the next entry?
Q: Field request: number of experimental animals matching Score 0.5 | item: Cc1n[nH]c2cc(OCCNC[C@H](O)c3cccc(NS(=O)(=O)c4cnn(C)c4)c3)ccc12
Result: 1

* * *

# experimentalTarget: human β3-adrenergic receptor (Homo sapiens, UniProt P13945)
# Construct: A full-length human β3 gene is obtained from a human genomic library (made by Clontech) using this as the probe
# Sequence (P13945 whole entry): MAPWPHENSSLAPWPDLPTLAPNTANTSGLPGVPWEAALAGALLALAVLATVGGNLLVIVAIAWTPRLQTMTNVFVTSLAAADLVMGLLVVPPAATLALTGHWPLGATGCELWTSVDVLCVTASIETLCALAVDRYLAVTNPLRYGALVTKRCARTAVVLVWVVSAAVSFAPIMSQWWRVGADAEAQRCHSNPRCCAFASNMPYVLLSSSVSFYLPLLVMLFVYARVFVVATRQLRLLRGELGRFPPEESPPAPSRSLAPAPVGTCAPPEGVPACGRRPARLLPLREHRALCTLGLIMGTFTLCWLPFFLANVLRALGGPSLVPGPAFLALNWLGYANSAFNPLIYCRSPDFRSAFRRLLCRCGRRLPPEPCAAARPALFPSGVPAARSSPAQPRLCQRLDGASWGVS
# experimentalDetails: Test Case 1-B: human β3-adrenergic receptor agonist activity (cAMP-Screen, 96-well)
# measurementParameters: Test Case 1-B; CHO cells, cAMP
Measured EC50 of individual entries

Some compounds with known EC50 results, for comparison:
> print(dat)
                                   compound    obsvalue
1  CCc1n[nH]c2cc(OCCNC[C@H](O)c3cccc(NS(=O)(=O)c4cccnc4)c3)ccc12 [ex121]   0.0028 µM
2  CCc1n[nH]c2cc(OCCNC[C@H](O)c3cccc(NS(=O)(=O)c4ccsc4)c3)ccc12 [ex123]  0.00067 µM
3  COc1n[nH]c2cc(OCCNC[C@H](O)c3cccc(NS(=O)(=O)c4ccccc4F)c3)ccc12 [ex5]     0.09 µM

// next entry
Q: Look up EC50: Cc1n[nH]c2cc(OCCNC[C@H](O)c3cccc(NS(=O)(=O)c4cccnc4F)c3)ccc12 [ex86]
Result: 0.401 µM

// data source = patent US20120225909A1
